System: Klebsiella aerogenes DSM 30053
Assay: fold change of Putrescine concentration vs plate DMSO controls (fold change (ratio)); higher = more amine produced, active = hit call of the paper (significant change in both replicates, either direction)
Details: incubation time: 27 h, anaerobic, 37 °C
Where a name gives a salt, the structure may show the parent alone.
Measurement Label: fold change of Putrescine concentration
A bare number is all that is needed in reply.

[
  {
    "Compound": "Cc1ccc(Cl)c(Nc2ccccc2C(=O)O)c1Cl [Meclofenamic acid sodium salt monohydrate] (20 µM)",
    "Readout Number": 0.977
  },
  {
    "Compound": "CN1CCC(=C2c3ccccc3CCc3sccc32)CC1 [Pizotifen malate] (20 µM)",
    "Readout Number": 1.01
  },
  {
    "Compound": "CC(C)OC(=O)C(C)(C)Oc1ccc(C(=O)c2ccc(Cl)cc2)cc1 [Fenofibrate] (20 µM)",
    "Readout Number": 0.984
  },
  {
    "Compound": "Cn1c(=O)c2[nH]cnc2n(C)c1=O [Aminophylline] (20 µM)",
    "Readout Number": 1.02
  },
  {
    "Compound": "C=CC[C@@H]1/C=C(\\C)C[C@H](C)C[C@H](OC)[C@H]2O[C@@](O)(C(=O)C(=O)N3CCCC[C@H]3C(=O)O[C@H](/C(C)=C/[C@@H]3CC[C@@H](O)[C@H](OC)C3)[C@H](C)[C@@H](O)CC1=O)[C@H](C)C[C@@H]2OC [Tacrolimus Monohydrate] (20 µM)",
    "Readout Number": 1.02
  }
]

Continue with the compound presented below.
Q: Provide fold change of Putrescine concentration, recorded with Klebsiella aerogenes DSM 30053, of O=C1Cc2cc(CCN3CCN(c4nsc5ccccc45)CC3)c(Cl)cc2N1 [Ziprasidone hydrochloride monohydrate] (20 µM)
Result: 1.1

* * *

Catalogue of compounds with associated fold change of 2-Phenylethylamine concentration
System: Ruminococcus gnavus DSM 108212
Test: fold change of 2-Phenylethylamine concentration vs plate DMSO controls (fold change (ratio)); higher = more amine produced, active = hit call of the paper (significant change in both replicates, either direction)
Conditions: incubation time: 27 h, anaerobic, 37 °C

Solved cases below.
[
  {
    "Compound": "CCCCC1C(=O)N(c2ccccc2)N(c2ccccc2)C1=O [Phenylbutazone] (20 µM)",
    "Result": "0.878 (inactive)"
  },
  {
    "Compound": "CCCCC1C(=O)N(c2ccccc2)N(c2ccc(O)cc2)C1=O (stereo not drawn) [Oxyphenbutazone] (20 µM)",
    "Result": "1.23 (inactive)"
  }
]

Q: // Input: O=C1c2ccccc2S(=O)(=O)N1CCCCN1CCN(c2ncccn2)CC1 [Ipsapirone] (20 µM) . Output its fold change of 2-Phenylethylamine concentration only.
Result: 1.01 (inactive)

Q: // Input: CCOC(=O)Nc1ccc(NCc2ccc(F)cc2)nc1N [Flupirtine] (20 µM) . Output its fold change of 2-Phenylethylamine concentration only.
Result: 1.03 (inactive)

Q: // Input: CC1CNc2c(cccc2S(=O)(=O)N[C@@H](CCCNC(=N)N)C(=O)N2CC[C@@H](C)C[C@@H]2C(=O)O)C1 (stereo partly drawn) [Argatroban] (20 µM) . Output its fold change of 2-Phenylethylamine concentration only.
Result: 0.937 (inactive)

Q: // Input: Nc1ccn([C@H]2CC[C@@H](CO)O2)c(=O)n1 [Zalcitabine] (20 µM) . Output its fold change of 2-Phenylethylamine concentration only.
Result: 1.02 (inactive)

Q: // Input: Cc1nc2ccccc2n1Cc1ccc(Cl)cc1 [Chlormidazole] (20 µM) . Output its fold change of 2-Phenylethylamine concentration only.
Result: 0.854 (inactive)

Q: // Input: NC(=O)OCC(O)COc1ccc(Cl)cc1 (stereo not drawn) [Chlorphensin carbamate] (20 µM) . Output its fold change of 2-Phenylethylamine concentration only.
Result: 1.07 (inactive)
